Biological target: T1, mouse IL-2Rγ (mouse) (UniProt P34902)
T1 sequence (looked up): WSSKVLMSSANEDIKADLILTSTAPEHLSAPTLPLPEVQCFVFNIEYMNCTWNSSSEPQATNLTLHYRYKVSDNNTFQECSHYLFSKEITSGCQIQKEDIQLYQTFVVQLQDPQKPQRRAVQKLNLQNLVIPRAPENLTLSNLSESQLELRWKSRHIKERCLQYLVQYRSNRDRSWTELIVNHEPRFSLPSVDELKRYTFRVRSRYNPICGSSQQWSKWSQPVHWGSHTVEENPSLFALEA
Assay: P.E. binding ELISA
Recorded metric: OD450 nm (OD450 nm)

27-MP04G01 VHH (periplasmic extract) (VHH) VHH: QVQLVESGGGLVQAGGSLTLSCAAPGRTFGTDVVGWFRQAPGKEREFVASISRSGDGIYYDDSVKGRFTISRNNAWNTVNLQMNSLKVEDTAVYYCAAGDGWSTYDYWGQGTQVTVSS : 0.048
29-MP04H02 VHH (periplasmic extract) (VHH) VHH: QVQLVESGGGLVQAGGSLRLACVASGLTFDNYYMGWFRQAPGKEREFVAGIIWNGDHTAYADSIKGRFTISRDNAKNTAYLRMNSLKPEDTAVYYCAATFWIERATTPDIGQYAYWGQGTQVTVSS : 0.05
35-MP07G01 VHH (periplasmic extract) (VHH) VHH: QVQLQESGGGLVQGGGSLRLSCAASGGIFSSYAMGWFRQAPGKEREFVAAISRSGRSTNYADSVKGRFTISRDNAKSTVYLQMNSLKPEETAVYYCAAGRYYNSAYDPSPGDFGSWGHGTQVTVSS : 0.045
32-MP04A08 VHH (periplasmic extract) (VHH) VHH: QVQLVESGGGLVQAGGSLRLSCAASGRTFGSTAVGWFRQVPGKEREFVSAINRSGSATTYADSVKGRFTISRDNAKNTVYLQMNSLTPEDTGVYYCAADSLPYGRPYYFQRSAGEYDYWGQGTQVTVSS : 0.05
